For each of the molecules below, state its pIC50.
Biological target: PI3-kinase p110-alpha/p85-alpha (Homo sapiens, UniProt P42336)
Sequence (P27986 whole entry): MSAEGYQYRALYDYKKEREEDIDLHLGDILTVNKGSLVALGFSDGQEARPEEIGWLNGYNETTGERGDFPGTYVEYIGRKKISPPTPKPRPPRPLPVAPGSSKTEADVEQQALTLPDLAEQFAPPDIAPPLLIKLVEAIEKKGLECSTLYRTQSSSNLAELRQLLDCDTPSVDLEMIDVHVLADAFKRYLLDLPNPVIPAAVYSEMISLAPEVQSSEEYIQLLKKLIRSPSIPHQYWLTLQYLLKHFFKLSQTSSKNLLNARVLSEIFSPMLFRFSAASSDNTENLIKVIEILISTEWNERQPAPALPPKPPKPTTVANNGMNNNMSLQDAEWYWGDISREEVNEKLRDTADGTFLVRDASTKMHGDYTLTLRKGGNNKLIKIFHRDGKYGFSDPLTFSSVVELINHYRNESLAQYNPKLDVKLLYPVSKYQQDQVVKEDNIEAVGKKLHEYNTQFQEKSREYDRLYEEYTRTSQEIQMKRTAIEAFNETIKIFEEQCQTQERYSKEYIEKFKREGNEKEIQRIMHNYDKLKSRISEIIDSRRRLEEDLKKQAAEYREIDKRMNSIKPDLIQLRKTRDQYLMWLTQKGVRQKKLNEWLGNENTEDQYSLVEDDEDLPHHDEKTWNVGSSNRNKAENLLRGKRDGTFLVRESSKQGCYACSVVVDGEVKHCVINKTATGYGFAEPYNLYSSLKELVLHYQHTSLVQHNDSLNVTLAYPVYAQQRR
Sequence (P42336 whole entry): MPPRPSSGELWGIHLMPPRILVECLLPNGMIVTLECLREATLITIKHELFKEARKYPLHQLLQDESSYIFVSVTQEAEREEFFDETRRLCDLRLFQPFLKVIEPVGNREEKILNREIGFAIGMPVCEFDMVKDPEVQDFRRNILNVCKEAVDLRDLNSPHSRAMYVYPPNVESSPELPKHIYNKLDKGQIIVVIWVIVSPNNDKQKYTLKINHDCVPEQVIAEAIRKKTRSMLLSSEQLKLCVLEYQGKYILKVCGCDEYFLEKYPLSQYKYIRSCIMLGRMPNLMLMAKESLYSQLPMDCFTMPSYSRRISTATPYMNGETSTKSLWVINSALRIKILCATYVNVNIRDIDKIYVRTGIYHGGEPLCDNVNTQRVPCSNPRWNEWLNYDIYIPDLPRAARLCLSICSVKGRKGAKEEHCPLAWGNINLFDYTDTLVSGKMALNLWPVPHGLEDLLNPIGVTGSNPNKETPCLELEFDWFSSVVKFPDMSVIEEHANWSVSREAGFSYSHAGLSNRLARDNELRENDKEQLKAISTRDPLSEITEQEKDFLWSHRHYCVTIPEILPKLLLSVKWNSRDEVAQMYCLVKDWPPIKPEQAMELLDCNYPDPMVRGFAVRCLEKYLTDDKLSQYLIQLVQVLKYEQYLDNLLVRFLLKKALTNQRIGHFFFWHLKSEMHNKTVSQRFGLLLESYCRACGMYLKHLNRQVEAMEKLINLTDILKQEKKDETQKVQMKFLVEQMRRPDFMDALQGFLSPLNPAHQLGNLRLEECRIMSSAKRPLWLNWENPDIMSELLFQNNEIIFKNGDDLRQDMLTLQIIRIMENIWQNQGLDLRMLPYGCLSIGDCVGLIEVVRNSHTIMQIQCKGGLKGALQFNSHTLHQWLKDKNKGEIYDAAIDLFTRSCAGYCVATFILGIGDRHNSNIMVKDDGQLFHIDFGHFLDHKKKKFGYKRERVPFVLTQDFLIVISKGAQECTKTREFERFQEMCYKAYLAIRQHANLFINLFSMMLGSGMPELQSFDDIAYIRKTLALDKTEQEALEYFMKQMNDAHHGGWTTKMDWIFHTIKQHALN
Assay: Inhibition of recombinant full length N-terminal His-tagged human PI3K p110alpha/p85alpha expressed in baculovirus expression system using PIP2/PS as substrate after 1 hr by ADP-Glo luminescence assay
Numbers only, as −log10 of the molar value.

Example entries and their recorded answers appear below.
O=S(=O)(Nc1cc(-c2cnc3[nH]nc(-c4ccccc4)c3c2)cnc1Cl)c1ccccc1 | 8.70
O=S(=O)(Nc1cc(-c2cnc3[nH]cc(-c4ccncc4)c3c2)cnc1Cl)c1ccccc1F | 9.00
O=S(=O)(Nc1cc(-c2cnc3[nH]cc(-c4ccccc4)c3c2)cnc1Cl)c1ccccc1 | 8.70
O=S(=O)(Nc1cc(-c2cnc3[nH]ncc3c2)cnc1Cl)c1ccccc1 | 7.29
O=S(=O)(Nc1cc(-c2cnc3[nH]nc(-c4ccncc4)c3c2)cnc1Cl)c1ccccc1 | 9.00

Items follow; give pIC50 for each.
1. O=S(=O)(Nc1cc(-c2cnc3[nH]cc(-c4ccncc4)c3c2)cnc1Cl)c1ccc(F)cc1
2. O=S(=O)(Nc1cc(-c2cnc3[nH]ccc3c2)cnc1Cl)c1ccccc1
3. O=S(=O)(Nc1cc(-c2cnc3[nH]cc(-c4ccncc4)c3c2)cnc1Cl)c1ccccc1

[9.00, 7.46, 9.00]

----------
System: T47D
Assay: Growth inhibition of human T47D cells after 72 hrs by SRB assay
Type: functional
Binary label based on GI50 with cut-off 2000 nM: below gives condition met, not below gives condition not met.

O=S(=O)(Nc1cc(-c2cnc3[nH]nc(-c4ccccc4)c3c2)cnc1Cl)c1ccccc1 | condition not met
O=S(=O)(Nc1cc(-c2cnc3[nH]ccc3c2)cnc1Cl)c1ccccc1 | condition not met
Cn1c(=O)n(-c2ccc(C(C)(C)C#N)cc2)c2c3cc(-c4cnc5ccccc5c4)ccc3ncc21 [DACTOLISIB] | condition met
O=S(=O)(Nc1cc(-c2cnc3[nH]ncc3c2)cnc1Cl)c1ccccc1 | condition not met
O=S(=O)(Nc1cc(-c2cnc3[nH]nc(-c4ccncc4)c3c2)cnc1Cl)c1ccccc1 | condition met
O=S(=O)(Nc1cc(-c2cnc3[nH]cc(-c4ccccc4)c3c2)cnc1Cl)c1ccccc1 | condition not met
O=S(=O)(Nc1cc(-c2cnc3[nH]cc(-c4ccncc4)c3c2)cnc1Cl)c1ccccc1F | condition met
O=S(=O)(Nc1cc(-c2cnc3[nH]cc(-c4ccncc4)c3c2)cnc1Cl)c1ccccc1 | condition met

Pending molecule:
Quick check: GI50 of O=S(=O)(Nc1cc(-c2cnc3[nH]cc(-c4ccncc4)c3c2)cnc1Cl)c1ccc(F)cc1 under 2000 nM?
condition met

----------
Target: Phosphatidylinositol 4,5-bisphosphate 3-kinase catalytic subunit gamma isoform (Homo sapiens)
Sequence (P48736 whole entry, canonical isoform): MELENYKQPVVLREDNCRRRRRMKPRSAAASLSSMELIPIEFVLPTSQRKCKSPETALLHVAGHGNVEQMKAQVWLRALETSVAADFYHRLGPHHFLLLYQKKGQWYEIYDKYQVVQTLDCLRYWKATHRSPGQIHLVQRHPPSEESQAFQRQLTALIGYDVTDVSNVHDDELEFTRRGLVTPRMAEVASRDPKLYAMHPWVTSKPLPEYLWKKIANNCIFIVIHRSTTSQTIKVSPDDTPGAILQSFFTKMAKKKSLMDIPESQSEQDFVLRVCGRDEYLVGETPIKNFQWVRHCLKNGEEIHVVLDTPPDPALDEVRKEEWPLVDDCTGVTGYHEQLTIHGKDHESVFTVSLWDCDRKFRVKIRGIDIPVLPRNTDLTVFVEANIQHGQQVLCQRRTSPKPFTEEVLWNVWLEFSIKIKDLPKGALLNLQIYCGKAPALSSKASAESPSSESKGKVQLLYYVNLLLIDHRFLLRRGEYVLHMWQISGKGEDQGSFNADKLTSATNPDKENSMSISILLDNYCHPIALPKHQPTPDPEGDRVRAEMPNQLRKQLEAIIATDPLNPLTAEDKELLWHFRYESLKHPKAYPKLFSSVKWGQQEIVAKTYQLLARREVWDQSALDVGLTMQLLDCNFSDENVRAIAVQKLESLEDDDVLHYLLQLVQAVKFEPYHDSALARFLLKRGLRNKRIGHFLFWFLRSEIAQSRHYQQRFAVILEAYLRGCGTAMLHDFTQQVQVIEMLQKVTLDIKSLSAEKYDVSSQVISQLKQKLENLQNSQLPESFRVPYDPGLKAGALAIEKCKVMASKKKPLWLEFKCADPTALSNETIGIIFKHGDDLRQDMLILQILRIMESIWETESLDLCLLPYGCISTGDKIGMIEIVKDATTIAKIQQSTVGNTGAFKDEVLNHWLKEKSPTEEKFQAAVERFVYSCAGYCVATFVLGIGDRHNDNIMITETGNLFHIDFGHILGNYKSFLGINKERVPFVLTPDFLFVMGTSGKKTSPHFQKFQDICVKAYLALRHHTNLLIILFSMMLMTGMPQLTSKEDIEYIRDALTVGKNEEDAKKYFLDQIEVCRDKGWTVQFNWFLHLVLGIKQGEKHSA
Binary label based on IC50 with cut-off 0.4 µM: below gives Condition met, not below gives Condition not met.

Before answering, review these 6 worked examples.
O=S(=O)(Nc1cc(-c2cnc3[nH]cc(-c4ccncc4)c3c2)cnc1Cl)c1ccc(F)cc1 | Condition met
O=S(=O)(Nc1cc(-c2cnc3[nH]cc(-c4ccccc4)c3c2)cnc1Cl)c1ccccc1 | Condition met
O=S(=O)(Nc1cc(-c2cnc3[nH]ccc3c2)cnc1Cl)c1ccccc1 | Condition met
CCNc1ccc(-c2cnc(Cl)c(NS(=O)(=O)c3ccccc3)c2)cn1 | Condition not met
CN(C)C(=O)Nc1ccc(-c2cnc(Cl)c(NS(=O)(=O)c3ccccc3)c2)cn1 | Condition met
O=S(=O)(Nc1cc(-c2cnc3[nH]nc(-c4ccncc4)c3c2)cnc1Cl)c1ccccc1 | Condition met

Quick check: IC50 of O=C(Nc1ccc(-c2cnc(Cl)c(NS(=O)(=O)c3ccccc3)c2)cn1)C1CC1 under 0.4 µM?
Condition not met

Data origin, for the record: ChEMBL document CHEMBL4190336
